Below, each entry is listed with its recorded growth.
- System: SF-268 CNS
- measurement.description: NCI-60 one-dose screen, 48 h (100 = growth as untreated, 0 = no growth, -100 = all killed)
- assay.conditions: 10 µM unless noted
The panel holds about 83,000 compounds, 20% with a hit somewhere; the sample as a whole holds those more often.
Give a bare numeral; the unit % is implied.

| compound | growth [%] |
| --- | --- |
| CCOC(=O)c1c(C)cc(=O)oc1C | 106 |

Asked: Answer briefly: growth recorded on SF-268 CNS for Cc1cc(-c2ccc(N=Nc3ccc4c(S(=O)(=O)O)cc(S(=O)(=O)O)c(N)c4c3O)c(C)c2)ccc1N=Nc1ccc2c(S(=O)(=O)O)cc(S(=O)(=O)O)c(N)c2c1O
Given back: 102

Asked: Answer briefly: growth recorded on SF-268 CNS for CC(C)NC(=O)N/C=C(\C#N)C(N)=O
Given back: 101

Asked: Answer briefly: growth recorded on SF-268 CNS for O=c1n(CC2CO2)c(=O)n(CC2CO2)c(=O)n1CC1CO1 (stereo not given)
Given back: 47.9

Asked: Answer briefly: growth recorded on SF-268 CNS for Brc1ccc(SSc2ccc(Br)cc2)cc1
Given back: 58.9

###

- System: SF-539 CNS
- measurement.description: NCI-60 one-dose screen, 48 h (100 = growth as untreated, 0 = no growth, -100 = all killed)
- assay.conditions: 10 µM unless noted
About 83,000 compounds went through this panel and 20% of them were active in at least one assay; those are over-represented in the sample as a whole.
Where growth equals or exceeds 90%, the correct label is Fulfilled; where it does not, the label is Not fulfilled.

| compound | target.under.test | assigned.category |
| --- | --- | --- |
| ClCCOCCOc1ccc(C2CCCCC2)cc1 | SF-539 CNS | Fulfilled |

Asked: Textbook exercise: given the entry N#CC(C#N)N=Nc1cc(Cl)ccc1Cl , state whether its growth is greater than or equal to 90%.
Given back: Fulfilled

Asked: Textbook exercise: given the entry Cc1ccc(S(=O)(=O)c2ccccc2)cc1 , state whether its growth is greater than or equal to 90%.
Given back: Not fulfilled

Asked: Textbook exercise: given the entry OCC1OC(O)C(O)C(O)C1O (stereo unspecified) , state whether its growth is greater than or equal to 90%.
Given back: Fulfilled

Asked: Textbook exercise: given the entry CC1=C/C(O)CC(=O)Cc2nc(co2)C(=O)N2CCC=C2C(=O)OC(C(C)C)C(C)/C=C\C(=O)NC/C=C\1 (stereo unspecified) , state whether its growth is greater than or equal to 90%.
Given back: Fulfilled

Asked: Textbook exercise: given the entry N#CC(C#N)N=Nc1ccc(Cl)cc1 , state whether its growth is greater than or equal to 90%.
Given back: Not fulfilled

Asked: Textbook exercise: given the entry O=C1OC(c2ccccc2)=N/C1=C\c1ccccc1 , state whether its growth is greater than or equal to 90%.
Given back: Fulfilled

Asked: Textbook exercise: given the entry O=c1n(CC2CO2)c(=O)n(CC2CO2)c(=O)n1CC1CO1 (stereo unspecified) , state whether its growth is greater than or equal to 90%.
Given back: Not fulfilled

Asked: Textbook exercise: given the entry Nc1ncnc2c1ncn2C1OC(COP(=O)(O)O)C(O)C1O (stereo unspecified) , state whether its growth is greater than or equal to 90%.
Given back: Fulfilled

Asked: Textbook exercise: given the entry CN(C)CC1CCCCCC(CN(C)C)C1=O (stereo unspecified) , state whether its growth is greater than or equal to 90%.
Given back: Fulfilled

Asked: Textbook exercise: given the entry O=C1OC(C(O)C(O)CO)C(O)=C1O (stereo unspecified) , state whether its growth is greater than or equal to 90%.
Given back: Fulfilled

Asked: Textbook exercise: given the entry O=C(Cc1ccccc1)c1ccc(O)c(Cl)c1 , state whether its growth is greater than or equal to 90%.
Given back: Not fulfilled

Asked: Textbook exercise: given the entry NC(=O)NCCCC(N)C(=O)O (stereo unspecified) , state whether its growth is greater than or equal to 90%.
Given back: Fulfilled

Asked: Textbook exercise: given the entry Oc1ccc(Cc2ccccc2Cl)c(O)c1 , state whether its growth is greater than or equal to 90%.
Given back: Fulfilled

###

- Test system: IGROV1 ovarian
- measurement.description: NCI-60 one-dose screen, 48 h (100 = growth as untreated, 0 = no growth, -100 = all killed)
- assay.conditions: 10 µM unless noted
This is part of a sample that, as a whole, favours compounds with a hit. Of some 83,000 tested, about 20% had one in any assay.
Below, each entry is listed with its recorded growth.
Give a bare numeral; the unit % is implied.

Asked: Look up and report measured growth for this entry: O=C1OC(c2ccccc2)=N/C1=C\c1ccccc1
Given back: 99.1

Asked: Look up and report measured growth for this entry: O=C(Cc1ccccc1)c1ccc(O)c(Cl)c1
Given back: 60.4

Asked: Look up and report measured growth for this entry: O=c1n(CC2CO2)c(=O)n(CC2CO2)c(=O)n1CC1CO1 (stereo unspecified)
Given back: 52.3

Asked: Look up and report measured growth for this entry: CC[C@H](CC[C@@H](C)[C@H]1CC[C@H]2[C@@H]3CC=C4C[C@@H](O)CC[C@]4(C)[C@H]3CC[C@]12C)C(C)C
Given back: 111

Asked: Look up and report measured growth for this entry: COc1ccc(C(=O)CC(c2ccccc2)C(C#N)c2ccccc2)cc1 (stereo unspecified)
Given back: 102

Asked: Look up and report measured growth for this entry: c1ccc2c(c1)OC1OC2Oc2ccccc21
Given back: 97

Asked: Look up and report measured growth for this entry: CC(=O)NCC(=O)c1ccc([N+](=O)[O-])cc1
Given back: 107

###

- Tested on: MDA-MB-231 breast
- measurement.description: NCI-60 one-dose screen, 48 h (100 = growth as untreated, 0 = no growth, -100 = all killed)
- assay.conditions: 10 µM unless noted
Compounds without any hit were thinned out: in the full panel of roughly 83,000, 20% have a hit. Calls of active or inactive are those of the source. How the source made its calls: active means growth percent below 10; inactive means the rest.
property.name: growth

Below: 3 compounds and their reported growth.
| compound | reported.value |
| --- | --- |
| OC1COC(OCc2ccccc2)C(O)C1O (configuration not stated) | 109% (inactive) |
| OCC1OC(O)C(O)C(O)C1O (configuration not stated) | 116% (inactive) |
| CC1=C/C(O)CC(=O)Cc2nc(co2)C(=O)N2CCC=C2C(=O)OC(C(C)C)C(C)/C=C\C(=O)NC/C=C\1 (configuration not stated) | 98.6% (inactive) |

Asked: Look up and report measured growth for this entry: COc1ccc(C(=O)CC(c2ccccc2)C(C#N)c2ccccc2)cc1 (configuration not stated)
Given back: 81% (inactive)

Asked: Look up and report measured growth for this entry: O=c1n(CC2CO2)c(=O)n(CC2CO2)c(=O)n1CC1CO1 (configuration not stated)
Given back: 107% (inactive)

Asked: Look up and report measured growth for this entry: CC1(C)COC(=S)N1
Given back: 96.5% (inactive)

Asked: Look up and report measured growth for this entry: Cl
Given back: 115% (inactive)

Asked: Look up and report measured growth for this entry: CC1CCC(C(C)C)C(NNC(N)=O)C1 (configuration not stated)
Given back: 97.5% (inactive)

Asked: Look up and report measured growth for this entry: C#CCOC(=O)Nc1ccccc1
Given back: 116% (inactive)

###

Below, each entry is listed with its recorded growth.
- Tested on: CCRF-CEM leukemia
- measurement.description: NCI-60 one-dose screen, 48 h (100 = growth as untreated, 0 = no growth, -100 = all killed)
- assay.conditions: 10 µM
- Description: Growth inhibition of the CCRF-CEM human tumor cell line is measured as a screen for anti-cancer activity. Cells are grown in 96 well plates and exposed to the test compound for 48 hours. Compounds are tested at a single concentration, which is 10^-5 M for most compounds. The reported endpoint is percent growth (GI% or GIPRCNT), where numbers from 0 - 100% represent growth inhibition, and numbers from -100% - 0 represent cell death. For example, a value of 40 represents 60% growth inhibition. […]
This is part of a sample that, as a whole, favours compounds with a hit. Of some 83,000 tested, about 20% had one in any assay.
Give a bare numeral; the unit % is implied.

Below: 10 molecules and their reported growth.
| molecule | growth / % |
| --- | --- |
| COc1cc(C(O)C2C(=O)OCC2C2(c3ccc4c(c3)OCO4)SCCCS2)cc(OC)c1OC (stereo not drawn) | 98.2 |
| CCCCNc1ccc(Nc2ccccc2)cc1 | 24.5 |
| C#CCOC(=O)Nc1ccccc1 | 112 |
| Cl | 106 |
| CCN(CCNS(C)(=O)=O)c1ccc(N)c(C)c1 | 35.7 |
| c1ccc(-c2nc3ccccc3s2)cc1 | 101 |
| CC(C)C(C)(C)c1ccc(O)cc1 | 105 |
| CC1(C)COC(=S)N1 | 108 |
| CC1CCC2(OC1)OC1CC3C4CC=C5CC(O)CCC5(C)C4CCC3(C)C1C2C (stereo not drawn) | -55.7 |
| CN(C)CC1CCCCCC(CN(C)C)C1=O (stereo not drawn) | -23.7 |

Asked: Look up and report measured growth for this entry: CC1CCC(C(C)C)C(NNC(N)=O)C1 (stereo not drawn)
Given back: 106

Asked: Look up and report measured growth for this entry: Brc1ccc(SSc2ccc(Br)cc2)cc1
Given back: 8.01

Asked: Look up and report measured growth for this entry: Nc1ccc2c(O)cc(S(=O)(=O)O)cc2c1
Given back: 74.6

Asked: Look up and report measured growth for this entry: O=C(Cc1ccccc1)c1ccc(O)c(Cl)c1
Given back: -27.2

Asked: Look up and report measured growth for this entry: O=[N+]([O-])c1cccc(SSc2cccc([N+](=O)[O-])c2)c1
Given back: 50.6
